I'd be grateful if you could share measured IC50 for these entries.
- tested-target: PDE4D2 (Homo sapiens, UniProt Q08499)
- Sequence (Q08499 303-809 limits assumed): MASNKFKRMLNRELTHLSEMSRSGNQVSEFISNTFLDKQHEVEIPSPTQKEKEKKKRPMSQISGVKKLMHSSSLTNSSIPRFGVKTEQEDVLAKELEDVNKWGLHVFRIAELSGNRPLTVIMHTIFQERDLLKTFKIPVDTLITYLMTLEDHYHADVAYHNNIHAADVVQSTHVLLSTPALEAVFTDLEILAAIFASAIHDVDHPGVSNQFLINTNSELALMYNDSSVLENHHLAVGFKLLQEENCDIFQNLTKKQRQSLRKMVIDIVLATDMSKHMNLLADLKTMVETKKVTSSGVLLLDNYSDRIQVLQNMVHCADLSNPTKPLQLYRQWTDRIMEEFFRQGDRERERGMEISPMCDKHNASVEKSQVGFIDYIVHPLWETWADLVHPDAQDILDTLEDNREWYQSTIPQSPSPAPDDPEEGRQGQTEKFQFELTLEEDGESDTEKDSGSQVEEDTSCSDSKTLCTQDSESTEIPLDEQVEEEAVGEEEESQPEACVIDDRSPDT
Give bare numbers, in nM.

The following molecules each have a reported value; give each one's IC50.
1. [O-][S@+]1CCc2nc(N3CCn4c(nc5ccc(Cl)cc54)C3)nc(NC3(CO)CCC3)c21 [Compound 6]
2. [O-][S+]1CCc2nc(N3CCc4c(ncc5cc(Cl)ccc45)C3)nc(NC3(CO)CCC3)c21 (stereo not drawn) [Compound 100]
3. [O-][S@+]1CCc2nc(N3CCc4cc(N5CCCC5)c(F)cc4C3)nc(NC3(CO)CCC3)c21 [Compound 181]

1. 0.473
2. 1.15
3. 0.876

###

- tested-target: PDE4B2 (Homo sapiens, UniProt Q07343)
- Construct: expressed in transfected cells; host or cells: Flp-In-293 (Flpin-293-PDE4B2 [sic])
- Sequence (Q07343 1-564 isoform Q07343-2): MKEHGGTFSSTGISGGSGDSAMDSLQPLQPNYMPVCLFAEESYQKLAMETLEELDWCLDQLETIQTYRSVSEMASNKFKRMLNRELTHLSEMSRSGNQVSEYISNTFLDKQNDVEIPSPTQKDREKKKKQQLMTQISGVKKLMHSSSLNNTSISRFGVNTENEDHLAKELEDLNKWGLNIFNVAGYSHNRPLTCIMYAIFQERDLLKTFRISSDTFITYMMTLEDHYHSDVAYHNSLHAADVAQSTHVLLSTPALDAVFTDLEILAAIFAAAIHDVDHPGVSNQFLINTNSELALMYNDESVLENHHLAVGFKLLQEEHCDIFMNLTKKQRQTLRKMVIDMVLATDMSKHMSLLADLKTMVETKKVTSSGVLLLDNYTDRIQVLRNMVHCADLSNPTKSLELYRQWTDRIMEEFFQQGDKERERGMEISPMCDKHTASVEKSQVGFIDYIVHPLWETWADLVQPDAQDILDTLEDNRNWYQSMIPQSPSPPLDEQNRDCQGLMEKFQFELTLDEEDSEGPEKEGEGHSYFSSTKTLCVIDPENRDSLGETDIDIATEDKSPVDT
- assay-overview: PDE4B2 cell experiment (cAMP, Eu-cAMP tracer / Ulight-anti-cAMP)
- Type: cell-based
- recorded-conditions: Flpin-293-PDE4B2 cells, 10 nM
Assign class 1 to entries whose inhibition at 0.01 µM meets or exceeds 40%; assign class 0 to the rest.

These solved cases illustrate the format of a correct answer.
State whether the measured inhibition at 0.01 µM reaches 40%, counting equality as reaching it, for `[O-][S@+]1CCc2nc(N3CCc4cc(N5CCCC5)cnc4C3)nc(NC3(CO)CCC3)c21`
class 1

Could you please find out whether `[O-][S@+]1CCc2nc(N3CC[C@H]4c5ncc(Cl)cc5OC[C@@H]4C3)nc(NC3(CO)CCC3)c21` has inhibition at 0.01 µM that meets 40% or exceeds it?
class 0

Next:
Quick check: does `CN1CC=C(c2ccc3c(c2)CCN(c2nc4c(c(NC5(CO)CCC5)n2)[S@+]([O-])CC4)C3)C1` have inhibition at 0.01 µM greater than or equal to 40%?
class 1

Please tell me: is the compound `[O-][S@+]1CCc2nc(N3CCc4c(ccc5[nH]ncc45)C3)nc(NC3(CO)CCC3)c21` at or over 40% in terms of inhibition at 0.01 µM?
class 1

Could you please find out whether `[O-][S@+]1CCc2nc(N3CC[C@@H]4c5ccncc5OC[C@H]4C3)nc(NC3(CO)CCC3)c21` has inhibition at 0.01 µM that meets 40% or exceeds it?
class 0

Item `[O-][S@+]1CCc2nc(N3CCc4cc5c(cc4C3)OC(F)(F)O5)nc(NC3(CO)CCC3)c21` with inhibition at 0.01 µM of 40% or above?
class 0

###

- tested-target: PDE4B2 (Homo sapiens, UniProt Q07343)
- Construct: expressed in transfected cells; host or cells: Flp-In-293 (Flpin-293-PDE4B2 [sic])
- assay-overview: PDE4B2 cell experiment (cAMP, Eu-cAMP tracer / Ulight-anti-cAMP)
- Type: cell-based
- recorded-conditions: Flpin-293-PDE4B2 cells, 100 nM
measurement-kind: Cell Inhibition% @100 nM (%)
One number for each entry, in %.

Quick request: Cell Inhibition% @100 nM for each listed item, please.
1. [O-][S+]1CCc2nc(N3CCc4cc(Cl)c(F)cc4C3)nc(NC3(CO)CCC3)c21 (stereo not drawn)
2. [O-][S+]1CCc2nc(N3CCC4=C(COc5ccccc54)C3)nc(NC3(CO)CCC3)c21 (stereo not drawn)
3. [O-][S+]1CCc2nc(N3CCc4cc(-c5cnco5)ccc4C3)nc(NC3(CO)CCC3)c21 (stereo not drawn)
4. COc1ccc2c(c1)OC[C@H]1CN(c3nc4c(c(NC5(CO)CCC5)n3)[S+]([O-])CC4)CC[C@H]21 (stereo partly drawn)
5. CN1CCN(c2ccc3c(c2)CCN(c2nc4c(c(NC5(CO)CCC5)n2)[S+]([O-])CC4)C3)C1=O (stereo not drawn)
6. Cn1ccc(-c2ccc3c(c2)CCN(c2nc4c(c(NC5(CO)CCC5)n2)[S+]([O-])CC4)C3)n1 (stereo not drawn)

[84.8, 86.54, 101.1, 100.03, 97.77, 100.73]
